Target: 5-lipoxygenase (Rattus norvegicus)
Construct: 20,000×g supernatant from homogenized RBL-1 cells; endogenous in cells
Sequence (P12527 1-673): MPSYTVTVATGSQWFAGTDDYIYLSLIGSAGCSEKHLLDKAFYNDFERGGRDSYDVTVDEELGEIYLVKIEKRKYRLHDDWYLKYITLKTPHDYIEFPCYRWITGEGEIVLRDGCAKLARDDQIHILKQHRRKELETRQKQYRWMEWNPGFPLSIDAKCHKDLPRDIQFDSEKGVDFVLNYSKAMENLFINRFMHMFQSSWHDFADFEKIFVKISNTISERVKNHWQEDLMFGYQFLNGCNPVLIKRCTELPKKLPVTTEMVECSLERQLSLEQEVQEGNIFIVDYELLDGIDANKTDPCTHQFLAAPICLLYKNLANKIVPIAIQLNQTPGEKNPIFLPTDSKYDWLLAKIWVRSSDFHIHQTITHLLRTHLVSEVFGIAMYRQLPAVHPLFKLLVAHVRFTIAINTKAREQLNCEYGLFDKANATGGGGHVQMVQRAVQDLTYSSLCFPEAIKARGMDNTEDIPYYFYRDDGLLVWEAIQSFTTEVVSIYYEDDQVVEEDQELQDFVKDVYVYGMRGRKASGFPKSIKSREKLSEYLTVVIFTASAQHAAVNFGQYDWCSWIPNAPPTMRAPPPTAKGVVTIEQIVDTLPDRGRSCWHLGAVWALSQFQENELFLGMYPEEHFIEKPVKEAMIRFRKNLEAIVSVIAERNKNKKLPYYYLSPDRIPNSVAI
Assay: Inhibition of 5-lipoxygenase (20,000×g supernatant from homogenized RBL-1 cells)
Details: in vitro, read-out: IC50 (concentration of compound producing 50% enzyme inhibition)
Recorded IC50 by entry
parameter: IC50 (µM)

• S=C1NCCN(c2cccc(Cl)c2)N1 = 5
• N#Cc1cccc(N2CCCC(=O)N2)c1 = 11
• CCc1cccc(N2CCCC(=O)N2)c1 = 3
• CCCCC1CCN(c2ccccc2)NC1=O (stereo not shown) = 0.6
• O=C1CCCN(c2ccccc2F)N1 = 10
• O=C1CCCN(c2cccc(Cl)c2)N1 = 2.5
• Cc1cc(C)cc(N2CCNC(=O)N2)c1 = 12
• O=C1NN(c2ccccc2)CCN1Cc1ccccc1 = 8
• O=C1CCCN(c2ccc(Oc3ccccc3)cc2)N1 = 2
• O=C1CCCN(c2cccc(C(F)(F)F)c2)N1 = 5
• CC(C)C(=O)N1CCN(c2ccccc2)NC1=O = 1
• O=C1NCCN(c2cccc(OCc3ccccc3)c2)N1 = 1
• Cc1cccc(N2CCCC(=S)N2)c1 = 1
• CC(=O)N1CCN(c2ccccc2)NC1=O = 3
• O=C1CCCN(c2ccccc2)N1COCc1ccccc1 = 71
• CC1CN(c2cccc(Cl)c2)NC(=O)N1 (racemic) = 3
• O=C1NCCN(c2cccc(Cl)c2)N1 = 6
• CSc1cccc(N2CCNC(=O)N2)c1 = 14
• CCC1CN(c2ccccc2)NC(=O)N1 (racemic) = 7
• CCCCC1CC(=O)NN(c2ccccc2)C1 (stereo not shown) = 0.5
• CCc1cccc(N2CCNC(=O)N2)c1 = 13
• COc1cccc(N2CCCC(=O)N2)c1 = 6
• Cc1cccc(N2CCNC(=O)N2)c1 = 15
• CC1(C)CN(c2ccccc2)NC(=O)N1 = 7
• CC(C)C1CN(c2ccccc2)NC(=O)N1 (racemic) = 7
• Cc1cc(C)cc(N2CCCC(=O)N2)c1 = 3
• O=C1NCCN(c2cccc(Br)c2)N1 = 5
• CCOC(=O)c1cccc(N2CCCC(=O)N2)c1 = 5
• CCCCC1CN(c2ccccc2)NC(=O)N1 (racemic) = 2
• O=C1NCCN(c2cccc(F)c2)N1 = 19
• CCCCCCCCc1ccc(N2CCCC(=O)N2)cc1 = 6
• O=C1CCCN(c2cc(Cl)cc(Cl)c2)N1 = 1
• O=C1NCCN(c2ccccn2)N1 = 26
• CC(=O)N1CCN(c2cccc(Cl)c2)NC1=O = 1
• O=C1NCCN(c2cccc(C(F)(F)F)c2)N1 = 17
• O=C1NCCN(c2ccccc2)N1 = 21
• S=C1NCCN(c2ccccc2)N1 = 17
